# Test system: Plasmodium falciparum Sir2 (PF13_0152, Sir2A)
# Method notes: pfSir2 binders on small-molecule microarrays, primary screen, biochemical, small-molecule microarray, 635 nm fluorescence (AID 1098);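 also: score merges spot fluorescence intensity with its signal-to-noise ratio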
# Experimental setup: small-molecule microarray binding, fluorescence 635 nm; higher = more signal
condition met means recorded composite z-score is 1 or above; condition not met means it is below 1.

Query string: Reported composite z-score at or above 1? CCOC(=O)C[C@H]1[C@H](OC(=O)Cc2ccc3c(c2)OCO3)[C@@H](NC(=O)c2ccc3ccccc3c2)c2cc(OCCCO)ccc2N1C(=O)c1ccc2ccccc2n1
Result string: condition not met

Query string: For CCCCCN1CC=CC23O[C@@H]4/C=C\CCC(C)OC(=O)C4[C@H]2C(=O)N(CCCO)[C@@H]3C1=O (stereo partly drawn) then?
Result string: condition not met

Query string: Similarly, CCCCCN1CC=CC23O[C@@H]4/C=C\CCC(C)OC(=O)C4[C@H]2C(=O)N(CCO)[C@@H]3C1=O (stereo partly drawn) ?
Result string: condition met

Query string: Then CC(C)C(CO)N1C(=O)[C@@H]2C3C(=O)OCCC/C=C\[C@H]3OC23C=CCN(C(C)C)C(=O)[C@@H]13 (stereo partly drawn) ?
Result string: condition met

Query string: Repeat with CC(C)N1C(=O)c2ccccc2[C@@H](C(=O)NCc2ccccc2)[C@@H]1c1ccc(CO)cc1
Result string: condition met

Query string: // query: O=C(N1CCCCC1)[C@@]1(Cc2ccccc2)N=C(c2ccc(OCCCO)cc2)O[C@H]1c1ccccc1
Result string: condition met

Query string: Another: COc1ccc(CCNC(=O)[C@@]2(Sc3ccc(C)cc3)CC(=O)N(Cc3ccccc3)[C@@H]2c2ccc(CO)cc2I)cc1
Result string: condition met

Query string: What would you report for COc1ccc([Si](C)(C)[C@@H]2[C@@H](CCn3cc([C@H](O)c4ccccc4)nn3)O[C@]3(C(=O)N(C)c4c(Br)cc(C)cc43)[C@H]2C)cc1 ?
Result string: condition not met
